# procedure_text: chemical genetic growth profiling, strain panel (AID 1159580);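 further: tested at 20 µM; growth read once vehicle control cultures reached saturation at 30 °C; 1 = growth at the plate median or of vehicle wells; lower values mean less growth of the strain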
# run_parameters: S. cerevisiae deletion strains, growth OD, locus YNL197C, strain WHI3, hits give low values
Screen size: about 5,500 compounds; about 2,000 (36%) were called active. Another 18% or so got no clear call; they are omitted. Some of the results follow.
property_measured: normalized growth
Give the figure only, with no unit attached.

Illustrative cases are given below, each with its answer.
O=c1cc(N2CCOCC2)oc2c(-c3ccccc3)cccc12 | 0.991
NC(=O)CI | 0.936
C=CCN1CC[C@]23c4c5ccc(O)c4O[C@@H]2/C(=N\N=C2\CC[C@@]4(O)C6Cc7ccc(O)c8c7[C@@]4(CCN6CC=C)[C@@H]2O8)CC[C@@]3(O)C1C5 | 1.02
CNC(CC(=O)O)C(=O)O (stereo not given) | 1

Here's the next entry for you.
Entry C=CCN1CCc2cccc3c2[C@H]1Cc1ccc(O)c(O)c1-3 — recorded normalized growth = 0.961

* * *

# procedure_text: chemical genetic growth profiling, strain panel (AID 1159580)
# run_parameters: S. cerevisiae deletion strains, growth OD, locus YER133W, strain GLC7, hits give low values
Out of some 5,500 compounds screened, about 2,000 (36%) were called active. Roughly 18% stayed inconclusive and do not appear here. Some of the results follow.
property_measured: normalized growth
Give the figure only, with no unit attached.

Illustrative cases are given below, each with its answer.
O=S(=O)(Nc1cc(C(F)(F)F)ccc1F)c1cc(C(F)(F)F)ccc1Cl | 0.923
CC12CC[C@@H](O)CC1=CC[C@@H]1C2CCC2(C)C(=O)CC[C@@H]12 (stereo partly drawn) | 0.915

Here's the next entry for you.
Entry O=C(NCc1ccco1)c1csc(C2COc3ccccc3O2)n1 (stereo not drawn) — recorded normalized growth = 0.902

* * *

# procedure_text: chemical genetic growth profiling, strain panel (AID 1159580)
# run_parameters: S. cerevisiae deletion strains, growth OD, locus YFR010W, strain ubp6, hits give low values
In all, about 5,500 compounds went through this assay and about 2,000 (36%) were called active. Inconclusive results (about 18%) are left out. Some of the results follow.
property_measured: normalized growth
Give the figure only, with no unit attached.

Illustrative cases are given below, each with its answer.
Cc1ccc(C(C)C)cc2c(C)ccc1-2 | 1.01
COc1ccc(C[C@H](N)C(=O)N[C@@H]2[C@@H](CO)OC(n3cnc4c(N(C)C)ncnc43)[C@@H]2O)cc1 (some centres not stated) | 0.995
CC12CCC(CC1)C(C)(C)O2 | 0.967
C=CCc1cc(OC)c2c(c1OC)OCO2 | 1.06
CCCN(CCC)CCc1cccc2c1CC(=O)N2 | 0.967
CC(=O)OCC(=O)[C@@]12OC(C)(C)O[C@@H]1CC1C3C[C@H](F)C4=CC(=O)C=C[C@]4(C)[C@@]3(F)[C@@H](O)C[C@@]12C (some centres not stated) | 1.01

Here's the next entry for you.
Entry CCCNC(C)C(=O)Nc1ccccc1C (configuration not stated) — recorded normalized growth = 0.992

* * *

# procedure_text: chemical genetic growth profiling, strain panel (AID 1159580)
# run_parameters: S. cerevisiae deletion strains, growth OD, locus YGR092W, strain DBF2, hits give low values
Screen size: about 5,500 compounds; about 2,000 (36%) were called active. Not shown: some 18% with an inconclusive outcome. The list shows a part of the results.
Could you mark each record True if its normalized growth falls strictly under 0.5, and False if it equals or exceeds it?

Sample answers from the record:
COc1cc(C(=O)Oc2c(Cl)cc(Cl)cc2C=Nc2ccc([N+](=O)[O-])cc2C#N)cc(OC)c1OC | True
COc1cc(N=Cc2cc(Cl)cc(Cl)c2OS(=O)(=O)c2ccc(C)cc2)c(OC)cc1Cl | False
CC(=O)C(Sc1nc2ccccc2s1)C(C)=O | True

Input: Criterion: normalized growth strictly below 0.5. Is it met by CSc1c(C#N)c(-c2ccc(Cl)cc2)nn1C(=O)c1ccccc1Cl ?
Output: False

Input: Criterion: normalized growth strictly below 0.5. Is it met by CCOC(=O)CCc1cc(N=Cc2cc(Br)ccc2O)c(O)c(N=Cc2cc(Br)ccc2O)c1 ?
Output: True

Input: Criterion: normalized growth strictly below 0.5. Is it met by CCCCCc1ccc(S(=O)(=O)Nc2ccc3c(c2)C(=O)OC3)cc1 ?
Output: False

Input: Criterion: normalized growth strictly below 0.5. Is it met by Nc1cc(-c2ccc(OC(F)(F)F)cc2)nn1-c1ccc(Cl)c(Cl)c1 ?
Output: True

Input: Criterion: normalized growth strictly below 0.5. Is it met by O=C(CCSc1cccs1)Nc1cccc(C(F)(F)F)c1 ?
Output: False

Input: Criterion: normalized growth strictly below 0.5. Is it met by Cc1onc(-c2ccccc2Cl)c1-c1nc2ccccc2c(=O)o1 ?
Output: False

Input: Criterion: normalized growth strictly below 0.5. Is it met by CCOC(=O)c1c(N=Cc2cc(Br)c(Br)cc2O)sc2c1CCCC2 ?
Output: True

* * *

Recorded normalized growth for the following compounds
# procedure_text: chemical genetic growth profiling, strain panel (AID 1159580);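 further: tested at 20 µM; growth read once vehicle control cultures reached saturation at 30 °C; 1 = growth at the plate median or of vehicle wells; lower values mean less growth of the strain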
# run_parameters: S. cerevisiae deletion strains, growth OD, locus YHR027C, strain rpn1, hits give low values
Out of some 5,500 compounds screened, about 2,000 (36%) were called active. Roughly 18% stayed inconclusive and do not appear here. The list shows a part of the results.
Give the figure only, with no unit attached.

CCn1cc(C(=O)O)c(=O)c2cnc(N3CCCC3)nc21 | 1
COc1ccc2c(c1O)-c1c(OC)c(OC)cc3c1[C@H](C2)N(C)CC3 | 0.988
N[C@@H](CCC(=O)N[C@@H](CCSC(CC(=O)O)C(=O)O)C(=O)NCC(=O)O)C(=O)O (some centres not stated) | 0.994
CO[C@@H]1[C@@H](O[C@@H]2O[C@H](C)[C@@H](O[C@H]3C[C@@](C)(O)[C@H](O)[C@H](C)O3)[C@H](N(C)C)[C@H]2O)[C@@H](CC=O)C[C@@H](C)[C@@H](O[C@H]2CC[C@H](N(C)C)[C@@H](C)O2)/C=C/C=C/C[C@H](C)OC(=O)C[C@H]1O | 1.01
CC12CCC(CC1)C(C)(C)O2 | 0.984

Entry Nc1c(Br)cc(Br)cc1CNC1CCC(O)CC1 (configuration not stated) — recorded normalized growth = 1

Entry CCOC(=O)c1ccc(N)cc1 — recorded normalized growth = 1.01

Entry CCn1cc(C(=O)O)c(=O)c2cc3c(cc21)OCO3 — recorded normalized growth = 0.971

Entry Nc1nccs1 — recorded normalized growth = 0.994

Entry CC12CCCC(O)(C1)C1CC(C)(C)C1CC2 (configuration not stated) — recorded normalized growth = 1

Entry Nc1ccc(S(=O)(=O)Nc2nccs2)cc1 — recorded normalized growth = 1.02

Entry CCn1cc(C(=O)O)c(=O)c2cnc(N3CCNCC3)nc21 — recorded normalized growth = 1.01

* * *

# procedure_text: chemical genetic growth profiling, strain panel (AID 1159580);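 further: tested at 20 µM; growth read once vehicle control cultures reached saturation at 30 °C; 1 = growth at the plate median or of vehicle wells; lower values mean less growth of the strain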
# run_parameters: S. cerevisiae deletion strains, growth OD, locus YDL017W, strain CDC7, hits give low values
In all, about 5,500 compounds went through this assay and about 2,000 (36%) were called active. Not shown: some 18% with an inconclusive outcome. The list shows a part of the results.
Recorded normalized growth for the following compounds
Give the figure only, with no unit attached.

Illustrative cases are given below, each with its answer.
N=C(N)SCc1nc(-c2ccc(Cl)cc2)no1 | 0.977
COc1cc(C(=O)Oc2c(Cl)cc(Cl)cc2C=Nc2cccc([N+](=O)[O-])c2)cc(OC)c1OC | 0.982
CC(C)(O)C#Cc1ccc(/C=N\Nc2ccccc2)cc1 | 0.961
CC(C)(O)C#Cc1ccc(/C=N\Nc2c(Cl)cc(Cl)cc2Cl)cc1 | 0.982

Entry CCCCCc1ccc(S(=O)(=O)Nc2ccc3c(c2)C(=O)OC3)cc1 — recorded normalized growth = 0.985

Entry Cc1onc(-c2ccccc2Cl)c1-c1nc2ccccc2c(=O)o1 — recorded normalized growth = 0.969

Entry O=C(CCSc1cccs1)Nc1cccc(C(F)(F)F)c1 — recorded normalized growth = 0.922

Entry NC(=NC(=O)c1ccc(Cl)cc1)c1cccs1 — recorded normalized growth = 0.964

* * *

# procedure_text: chemical genetic growth profiling, strain panel (AID 1159580);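 further: tested at 20 µM; growth read once vehicle control cultures reached saturation at 30 °C; 1 = growth at the plate median or of vehicle wells; lower values mean less growth of the strain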
# run_parameters: S. cerevisiae deletion strains, growth OD, locus YML120C, strain ndi1, hits give low values
Screen size: about 5,500 compounds; about 2,000 (36%) were called active. Another 18% or so got no clear call; they are omitted. The list shows a part of the results.
Could you mark each record satisfied if its normalized growth falls strictly under 1, and not satisfied if it equals or exceeds it?

Sample answers from the record:
CCn1cc(C(=O)O)c(=O)c2cc3c(cc21)OCO3 | satisfied
c1cc2c(cc1[C@H]1OC[C@H]3[C@@H]1CO[C@H]3c1ccc3c(c1)OCO3)OCO2 | satisfied

Input: Criterion: normalized growth strictly below 1. Is it met by CC1(C)CC2C1CCC1(C)OC1CCC2(C)O (centres undefined) ?
Output: not satisfied
